Study Target: Porcine Ventricle myofibrils (left ventricle of Yucatan minipigs) (Sus scrofa, UniProt P79293)
Construct: Myofibrils from porcine cardiac muscle was isolated from the left ventricle of Yucatan minipigs; tissue Exemplar Genetics; host or cells: left ventricle of Yucatan minipigs
Sequence (P79293 whole entry): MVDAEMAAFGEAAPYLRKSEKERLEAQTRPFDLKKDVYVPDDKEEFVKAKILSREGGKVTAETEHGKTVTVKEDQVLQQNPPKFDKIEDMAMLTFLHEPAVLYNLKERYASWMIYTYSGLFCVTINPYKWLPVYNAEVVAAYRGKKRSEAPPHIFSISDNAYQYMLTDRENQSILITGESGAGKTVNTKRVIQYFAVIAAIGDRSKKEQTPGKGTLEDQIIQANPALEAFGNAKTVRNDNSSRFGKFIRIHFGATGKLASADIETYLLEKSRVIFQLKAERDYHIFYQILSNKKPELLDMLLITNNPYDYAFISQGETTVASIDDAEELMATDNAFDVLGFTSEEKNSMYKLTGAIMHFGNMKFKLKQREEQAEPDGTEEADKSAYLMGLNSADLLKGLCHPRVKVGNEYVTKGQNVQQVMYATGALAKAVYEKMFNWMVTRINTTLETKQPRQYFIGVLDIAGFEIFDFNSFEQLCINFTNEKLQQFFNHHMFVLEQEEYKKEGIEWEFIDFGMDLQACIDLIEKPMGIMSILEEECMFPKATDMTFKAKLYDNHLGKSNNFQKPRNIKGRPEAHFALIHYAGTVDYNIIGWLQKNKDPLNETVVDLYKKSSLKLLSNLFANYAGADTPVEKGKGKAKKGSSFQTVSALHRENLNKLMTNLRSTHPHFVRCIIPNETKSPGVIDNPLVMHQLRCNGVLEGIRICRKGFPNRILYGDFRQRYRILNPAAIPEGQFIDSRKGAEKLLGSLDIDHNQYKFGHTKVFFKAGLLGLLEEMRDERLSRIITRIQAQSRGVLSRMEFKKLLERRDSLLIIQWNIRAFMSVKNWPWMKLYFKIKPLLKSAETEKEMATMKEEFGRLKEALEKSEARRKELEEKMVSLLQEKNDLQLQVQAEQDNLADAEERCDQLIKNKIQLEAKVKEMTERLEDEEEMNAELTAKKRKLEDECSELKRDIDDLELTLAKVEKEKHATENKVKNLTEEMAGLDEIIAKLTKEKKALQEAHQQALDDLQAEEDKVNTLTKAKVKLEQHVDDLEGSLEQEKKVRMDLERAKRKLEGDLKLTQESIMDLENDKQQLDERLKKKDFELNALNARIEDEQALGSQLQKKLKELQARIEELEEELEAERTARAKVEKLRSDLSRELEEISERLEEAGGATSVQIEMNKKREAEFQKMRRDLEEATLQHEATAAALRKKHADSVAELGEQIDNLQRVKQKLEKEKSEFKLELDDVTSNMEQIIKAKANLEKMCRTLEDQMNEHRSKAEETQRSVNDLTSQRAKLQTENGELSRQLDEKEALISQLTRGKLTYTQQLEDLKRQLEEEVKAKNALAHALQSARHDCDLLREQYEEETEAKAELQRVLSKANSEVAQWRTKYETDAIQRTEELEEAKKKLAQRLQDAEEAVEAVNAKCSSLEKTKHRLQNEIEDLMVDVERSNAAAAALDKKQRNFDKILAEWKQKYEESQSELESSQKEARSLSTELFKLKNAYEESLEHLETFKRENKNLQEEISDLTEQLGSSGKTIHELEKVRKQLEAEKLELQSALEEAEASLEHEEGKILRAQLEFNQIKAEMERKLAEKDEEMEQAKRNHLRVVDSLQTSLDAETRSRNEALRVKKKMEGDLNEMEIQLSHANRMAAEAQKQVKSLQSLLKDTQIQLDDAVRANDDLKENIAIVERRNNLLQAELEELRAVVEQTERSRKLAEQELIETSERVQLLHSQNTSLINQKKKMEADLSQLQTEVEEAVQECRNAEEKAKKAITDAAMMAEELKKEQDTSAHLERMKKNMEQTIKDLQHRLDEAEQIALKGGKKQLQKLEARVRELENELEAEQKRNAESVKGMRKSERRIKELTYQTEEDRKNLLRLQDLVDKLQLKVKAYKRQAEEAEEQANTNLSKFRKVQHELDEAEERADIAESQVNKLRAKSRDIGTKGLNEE
Experiment Description: Myofibril ATPase assay (PK/LDH NADH-coupled), ventricle myofibrils
Assay type: biochemical
Condition Notes: Table 7
Measurement Name: Porcine Ventricle IC25 (µM)

- Compound: "O=C(CN1Cc2cnccc2NC1=O)N[C@H]1CCCc2cc(F)cc(F)c21 [Compound N130]"
  Uom: "µM"
  Porcine Ventricle IC25: 100
- Compound: "C[C@H](NC(=O)CN1Cc2c(F)cncc2NC1=O)c1ncc(F)cc1F [Compound N64]"
  Uom: "µM"
  Porcine Ventricle IC25: 100
- Compound: "C[C@H](NC(=O)[C@H](C)N1Cc2ncccc2NC1=O)c1ccc(F)cc1F [Compound N83]"
  Uom: "µM"
  Porcine Ventricle IC25: 100
- Compound: "N#Cc1cnc2c(c1)CC[C@H]2NC(=O)CN1C(=O)Nc2cccnc2C12CC2 [Compound N1]"
  Uom: "µM"
  Porcine Ventricle IC25: 100
- Compound: "O=C(CN1Cc2c(ccnc2C(F)(F)F)NC1=O)N[C@H](CO)c1ncc(F)cc1F [Compound N49]"
  Uom: "µM"
  Porcine Ventricle IC25: 100
- Compound: "C[C@H](NC(=O)CN1C(=O)Nc2cccnc2C12COC2)c1ncc(F)cc1F [Compound N30]"
  Uom: "µM"
  Porcine Ventricle IC25: 100
- Compound: "O=C(CN1C(=O)Nc2cccnc2C12CC2)N[C@H]1COc2cc(F)cc(F)c21 [Compound N34]"
  Uom: "µM"
  Porcine Ventricle IC25: 100
- Compound: "N#Cc1nccc2c1CN(CC(=O)N[C@H](CO)c1ccc(F)cc1F)C(=O)N2 [Compound N40]"
  Uom: "µM"
  Porcine Ventricle IC25: 100

* * *

Study Target: Porcine Ventricle myofibrils (left ventricle of Yucatan minipigs) (Sus scrofa)
Construct: Myofibrils from porcine cardiac muscle was isolated from the left ventricle of Yucatan minipigs; tissue Exemplar Genetics; host or cells: left ventricle of Yucatan minipigs
Experiment Description: Myofibril ATPase assay (PK/LDH NADH-coupled), ventricle myofibrils
Assay type: biochemical
Condition Notes: Table 7
Measurement Name: Porcine Ventricle IC25 (µM)

Known results for compounds:
- Compound: "C[C@@H](NC(=O)CN1Cc2nc(C#N)ccc2NC1=O)c1ncc(F)cc1F"
  Study Target: "Porcine Ventricle myofibrils (left ventricle of Yucatan minipigs) (Sus scrofa)"
  Measurement Name: "Porcine Ventricle IC25"
  Uom: "µM"
  Reported Result: 100
- Compound: "COc1ccc2c(n1)C1(CC1)N(CC(=O)N[C@H](C)c1ncc(F)cc1F)C(=O)N2"
  Study Target: "Porcine Ventricle myofibrils (left ventricle of Yucatan minipigs) (Sus scrofa)"
  Measurement Name: "Porcine Ventricle IC25"
  Uom: "µM"
  Reported Result: 100
- Compound: "N#Cc1cc(F)c2c(c1)OC[C@H]2NC(=O)CN1Cc2c(ccnc2C(F)(F)F)NC1=O"
  Study Target: "Porcine Ventricle myofibrils (left ventricle of Yucatan minipigs) (Sus scrofa)"
  Measurement Name: "Porcine Ventricle IC25"
  Uom: "µM"
  Reported Result: 0.1154
- Compound: "COc1ccc2c(n1)CN([C@@H](C)C(=O)N[C@@H](C)c1ccc(F)cc1F)C(=O)N2"
  Study Target: "Porcine Ventricle myofibrils (left ventricle of Yucatan minipigs) (Sus scrofa)"
  Measurement Name: "Porcine Ventricle IC25"
  Uom: "µM"
  Reported Result: 100
- Compound: "C[C@H](NC(=O)[C@@H](Cc1ccccc1)N1Cc2nc(F)ccc2NC1=O)c1ccc(F)cc1F"
  Study Target: "Porcine Ventricle myofibrils (left ventricle of Yucatan minipigs) (Sus scrofa)"
  Measurement Name: "Porcine Ventricle IC25"
  Uom: "µM"
  Reported Result: 100
- Compound: "C[C@H](NC(=O)CN1Cc2cc(F)cnc2NC1=O)c1ccc(F)cc1F"
  Study Target: "Porcine Ventricle myofibrils (left ventricle of Yucatan minipigs) (Sus scrofa)"
  Measurement Name: "Porcine Ventricle IC25"
  Uom: "µM"
  Reported Result: 100
- Compound: "C[C@H](NC(=O)[C@@H](C)N1Cc2c(ccnc2Cl)NC1=O)c1ccc(F)cc1F"
  Study Target: "Porcine Ventricle myofibrils (left ventricle of Yucatan minipigs) (Sus scrofa)"
  Measurement Name: "Porcine Ventricle IC25"
  Uom: "µM"
  Reported Result: 0.7516
- Compound: "O=C(CN1Cc2cnccc2NC1=O)N[C@@H]1COc2cc(F)cc(F)c21"
  Study Target: "Porcine Ventricle myofibrils (left ventricle of Yucatan minipigs) (Sus scrofa)"
  Measurement Name: "Porcine Ventricle IC25"
  Uom: "µM"
  Reported Result: 13.44
- Compound: "C[C@H](NC(=O)[C@@H](C)N1Cc2nc(F)ccc2NC1=O)c1ccccc1F"
  Study Target: "Porcine Ventricle myofibrils (left ventricle of Yucatan minipigs) (Sus scrofa)"
  Measurement Name: "Porcine Ventricle IC25"
  Uom: "µM"
  Reported Result: 100
- Compound: "C[C@H](NC(=O)CN1Cc2nc(OC3CC3)ccc2NC1=O)c1ccc(F)cc1F"
  Study Target: "Porcine Ventricle myofibrils (left ventricle of Yucatan minipigs) (Sus scrofa)"
  Measurement Name: "Porcine Ventricle IC25"
  Uom: "µM"
  Reported Result: 73.85

A: C[C@H](NC(=O)CN1C(=O)Nc2cccnc2C12CC2)c1ncc(F)cc1F
B: C[C@H](NC(=O)CN1C(=O)Nc2cccnc2C12CC2)c1ccc(F)cc1F
Query string: Compare reported Porcine Ventricle IC25 values for A and B . Which is lower? Output the label that corresponds to your choice.
Result string: B
(B: 0.7484 µM, A: 100 µM)
